B1: FANCE (parent)
chain: AQVLMLGQILELPWKEETFLVLQS

- Variants of: B1
- Assay Text: protein stability index of a GFP-peptide fusion (GPS, HEK-293T) (PSI 1-6); higher = more stable;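 further: lentivirally expressed fusions sorted by FACS into six bins by GFP to DsRed ratio, PSI derived from sequencing read proportions per bin multiplied by bin number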
- Condition Context: c terminus: a fixed tail appended
Our labelling divides records by protein stability index into ranges: Low = under 2, Medium = from 2 up to 3, High = 3 and over

These solved cases illustrate the format of a correct answer.
Ordered Residues | Class Name
AQVLSLGQILELPWKEETFLVLQS [M5S] | Low
AQVLMLGQIYELPWKEETFLVLQS [L10Y] | High
AQVLMLWQILELPWKEETFLVLQS [G7W] | High

Place this variant in its band: AQVLMLGQILELPWKAETFLVLQS [E16A] High

Place this variant in its band: AQVLMLGQIPELPWKEETFLVLQS [L10P] Medium

Place this variant in its band: AQVLMLGQILELPWKEETFLILQS [V21I] Medium

Place this variant in its band: AQVLMLGQILELPWKEETFDVLQS [L20D] Low

Place this variant in its band: AQVLMLGQILELPWKEETFLVLDS [Q23D] Low

Place this variant in its band: AQVLMLGYILELPWKEETFLVLQS [Q8Y] High

Place this variant in its band: AQVLMLGQILELPWKEKTFLVLQS [E17K] High

Place this variant in its band: AQVLMLGQILELPWKEETELVLQS [F19E] Medium

Values from the supplement of paper PMC10567573
